- system_under_test: ScHof1
- experiment_summary: SPOT peptide array binding signal intensity (averaged, normalized) (arbitrary units (background-subtracted, floor 0; scale differs between SH3 domains)); higher = stronger binding of the SH3 domain to the peptide
measured_parameter: SPOT peptide array binding signal intensity

YVRRRPRVRLEPLLS :: 0.5
NMLSRPRLAKLPSIR :: 28
QPQRTAPKPPISAPR :: ≤ 0

Look up SPOT peptide array binding signal intensity for this binder: NPLPKEPRLPKRKVA 1.25
